B1: LINE1-full (parent)
chain: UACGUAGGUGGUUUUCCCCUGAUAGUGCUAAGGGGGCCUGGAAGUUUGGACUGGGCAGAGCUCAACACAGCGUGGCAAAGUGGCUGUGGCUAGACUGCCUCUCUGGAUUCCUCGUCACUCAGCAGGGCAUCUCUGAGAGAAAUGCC

# Variants of: B1
# TEST: self-cleavage, relative activity (ratio to wild type); higher = more cleavage; in vitro, sequencing; the parent is a self-cleaving ribozyme
ENDPOINT_LABEL: self-cleavage
No unit in the answer, please; the number alone is enough.

Query: State the recorded self-cleavage for this entry: U52C A64G
Result: 0.34

Query: State the recorded self-cleavage for this entry: A22U U112A
Result: 1.19

Query: State the recorded self-cleavage for this entry: U13A U73A
Result: 1.04

Query: State the recorded self-cleavage for this entry: U9C U45C
Result: 1.27

Query: State the recorded self-cleavage for this entry: U91A A124G
Result: 0.33

Query: State the recorded self-cleavage for this entry: A2G U73C
Result: 0.81

Query: State the recorded self-cleavage for this entry: U52C U112C
Result: 1.5

Query: State the recorded self-cleavage for this entry: U96C A141G
Result: 0.18

Query: State the recorded self-cleavage for this entry: A77U A141U
Result: 1.07

Query: State the recorded self-cleavage for this entry: U20A U100A
Result: 0.78

Query: State the recorded self-cleavage for this entry: U87G A117C
Result: 0.31
